Biological target: human vWF A1 domain (SEQ ID NO 5) (Homo sapiens, UniProt P04275, T1381A)
Sequence (P04275 with tags, fused parts or gaps T1381A): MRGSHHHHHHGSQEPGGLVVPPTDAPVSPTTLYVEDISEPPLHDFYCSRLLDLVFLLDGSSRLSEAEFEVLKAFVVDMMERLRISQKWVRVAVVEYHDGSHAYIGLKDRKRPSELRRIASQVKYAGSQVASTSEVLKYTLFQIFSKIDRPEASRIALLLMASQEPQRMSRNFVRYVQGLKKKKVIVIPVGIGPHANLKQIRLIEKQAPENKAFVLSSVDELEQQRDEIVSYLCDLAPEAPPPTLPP
Experiment: 3-point dot blot screen, human vWF A1 domain
Format: binding
Details: rRfY aptamers; 100 nM human vWF A1 domain; ratio of fraction bound with target to fraction bound without target
Oligonucleotides are written 5' to 3', each unit as a sugar letter and its base; * is a phosphorothioate linkage, no mark a phosphodiester; rarer units and linkages stand in square brackets, end groups in braces. Plain capitals give the bases only. r = 2'-OH (RNA); f = 2'-fluoro
Quantity kind: Screen- Human/No Protein

Molecule	Data value
AMX198.A10: rRfY aptamer clone (nucleic acid) rGrGrArGfCrGfCrAfCfUfCrArGfCfCrAfCfCrArGfUfUrAfUrGfCfUrGrGfCfUfUfUrGrGfUfCfUfUfUrGrAfCfUrGfUfCfUrGrArGfUrGfUfUfCrGfUfUfUfCrGrAfCfCfUfCfUfCfUrGfCfUrArGfC	1.26
AMX201.C8: rRfY aptamer clone (nucleic acid) rGrGrArGfCrGfCrAfCfUfCrArGfCfCrAfCfCfCfUfCrGfCrArArGfCrAfUfUfUfUrArArGrArAfUrGrAfCfUfUrGfUrGfCfCrGfCfUrGrGfCfUrGfUfUfUfUfCrGrAfCfCfUfCfUfCfUrGfCfUrArGfC	2.47
AMX198.C10: rRfY aptamer clone (nucleic acid) rGrGrArGfCrGfCrAfCfUfCrArGfCfCrAfCfUrGrGfUfCfCfUfUrArGfCfUrArGfUfUrGfUrAfCfUrArGfCrGrAfCrGfCrGfUfUfCrArGrGfUrGrGfUfUfUfCrGrAfCfCfUfCfUfCfUrGfCfUrArGfC	1.40
